- protocol: Antioxidant activity assessed as hydroxyl radical scavenging activity at 10 uM by spectrophotometric analysis
- Assay type: functional
Note to self: values exactly at 30% are Criterion met. So Activity at or above 30% is Criterion met, below is Criterion not met.

Worked examples, 4 molecules total:
COc1cc(OC)c(C(=O)/C=C/c2ccccc2F)c(O)c1Br	Criterion not met
COc1cc(OC)c(C(=O)/C=C/c2cccc(C#N)c2)c(O)c1Br	Criterion not met
COc1ccc(/C=C/C(=O)c2c(OC)cc(OC)c(Br)c2O)c(OC)c1	Criterion not met
COc1cc(OC)c(C(=O)/C=C/c2ccccc2Cl)c(O)c1Br	Criterion met

Inquiry: Check the entry COc1cc(OC)c(C(=O)/C=C/c2cccc([N+](=O)[O-])c2)c(O)c1Br : does Activity equal or exceed 30%?
Reply text: Criterion not met
